Collected literature values of Ki measured for Alpha-1B adrenergic receptor (Homo sapiens).
Category scheme (Ki): lower range (below 20 nM), middle range (20 nM to below 300 nM), upper range (300 nM or more)

Some entries whose results are on file:
[[record]]
molecule = "CC(C)Oc1ccccc1N1CCN(CC(O)CNC(=O)c2ccc3c(c2)C(=O)N(c2cccc(F)c2)C3=O)CC1 (stereo not given)"
group = "upper range"

[[record]]
molecule = "COc1ccc2c(c1OCCNC[C@H]1COc3ccccc3O1)CCCC2"
group = "lower range"

[[record]]
molecule = "COc1ccccc1N1CCN(C[C@H]2CCC(c3ccccc3)(c3ccccc3)[C@@H]2O)CC1"
group = "middle range"


Enquiry: Hey, which category is "COc1ccccc1N1CCN(CCn2c(=O)[nH]c3c(sc4ccc(NC(=O)CCCC(=O)N(C)Cc5ccccc5)cc43)c2=O)CC1" in, do you know?
Return: lower range

Enquiry: Next up: "COc1ccc2ccccc2c1OCCNC[C@H]1COc2ccccc2O1"
Return: lower range

Enquiry: "COc1ccccc1N1CCN(CCn2c(=O)[nH]c3sccc3c2=O)CC1" , same question.
Return: lower range

Enquiry: Follow-up entry: Cc1ccc(N2C(=O)c3ccc(C(=O)NCC(O)CN4CCN(c5ccccc5OC(C)C)CC4)cc3C2=O)cc1 (stereo not given)
Return: upper range

* * *

Several publications report log10 of Ki on Alpha-1B adrenergic receptor (Homo sapiens); those values are gathered here.
On a log10 scale: recorded Ki, unit µM.

Below, each entry is followed by its recorded log10 of Ki result.
[[record]]
compound = "COc1ccccc1C1CCN(CCn2c(=O)[nH]c3c([nH]c4ccccc43)c2=O)CC1"
recorded_value = -2.54

[[record]]
compound = "COC(=O)C1=C(C)NC(=O)N(C(=O)NCCCN2CCC(c3ccccc3)CC2)C1c1ccc(F)c(F)c1 (stereo not drawn)"
recorded_value = -1.44

[[record]]
compound = "CO/C(O)=C1\\C(C)=NC(C)=C(C(=O)NCCCN2CCC(c3ccccc3)(c3ccccc3)CC2)C1c1ccc(OC(C)C)cc1 (stereo not drawn)"
recorded_value = -0.76

[[record]]
compound = "CNc1ccc2c(c1)C(NCCOc1cc(F)ccc1F)CCS2(=O)=O (stereo not drawn)"
recorded_value = -0.37


Next up:
Enquiry: Param item = CO/C(O)=C1\C(C)=NC(C)=C(C(=O)OCCCN2CCC(c3ccccc3)(c3ccccc3)CC2)C1c1ccc([N+](=O)[O-])cc1 (stereo not drawn) ; retrieve measured log10 of Ki.
Return: -1.30

* * *

TARGET OF ASSAY: Alpha-1B adrenergic receptor (Homo sapiens, UniProt P35368)
Sequence (P35368 whole entry): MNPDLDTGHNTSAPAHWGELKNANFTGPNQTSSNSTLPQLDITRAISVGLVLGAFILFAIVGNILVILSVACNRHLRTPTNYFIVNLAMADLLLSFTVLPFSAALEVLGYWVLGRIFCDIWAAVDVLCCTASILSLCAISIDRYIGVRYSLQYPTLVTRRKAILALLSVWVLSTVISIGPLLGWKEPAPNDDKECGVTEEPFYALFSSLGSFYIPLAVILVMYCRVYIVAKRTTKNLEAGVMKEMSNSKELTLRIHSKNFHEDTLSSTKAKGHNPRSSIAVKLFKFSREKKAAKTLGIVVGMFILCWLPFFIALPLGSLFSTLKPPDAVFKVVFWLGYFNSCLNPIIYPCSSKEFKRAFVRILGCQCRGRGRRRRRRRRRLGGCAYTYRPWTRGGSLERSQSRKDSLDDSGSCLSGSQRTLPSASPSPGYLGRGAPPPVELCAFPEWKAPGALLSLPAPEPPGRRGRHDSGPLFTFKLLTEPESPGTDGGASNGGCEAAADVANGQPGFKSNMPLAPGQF
Header: pKi / Alpha-1B adrenergic receptor (Homo sapiens, UniProt P35368) / multiple publications
Give only the number. pKi is defined as minus log10 of concentration in molar units.

Below, each entry is followed by its recorded pKi result.
[[record]]
molecule = "CC(C)Oc1ccccc1N1CCN(CCCNC(=O)c2ccc3c(c2)C(=O)N(c2cccc(F)c2)C3=O)CC1"
test_readout = "pKi"
recorded_value = 6.32

[[record]]
molecule = "Cn1cnc(S(=O)(=O)Nc2ccc3c(c2)C(=O)CC2(CCN(CCc4cccc5ccccc45)CC2)O3)c1"
test_readout = "pKi"
recorded_value = 7.28

[[record]]
molecule = "CO/C(O)=C1\\C(C)=NC(C)=C(C(=O)NCCCN2CCC(c3ccccc3)CC2)C1c1ccc(Cl)c([N+](=O)[O-])c1 (stereo not given)"
test_readout = "pKi"
recorded_value = 7.38

[[record]]
molecule = "O=C1CCCCN1Cc1cc(CN2CCN(c3ccccc3Oc3ccccc3)CC2)on1"
test_readout = "pKi"
recorded_value = 5.66

[[record]]
molecule = "COc1ccc2ccccc2c1OCCNC[C@@H]1COc2cc3c(cc2O1)CCCC3"
test_readout = "pKi"
recorded_value = 6.26


Enquiry: Would you kindly share the measured pKi for "COc1ccc2c(c1OCCNC[C@@H]1COc3ccccc3O1)NCC2" ?
Return: 6.43
